Source of measurements: ChEMBL document CHEMBL2169780

// Activity lookup, one value per entry
- experiment.summary: Neuroprotective activity against oxygen-glucose deprivation-induced toxicity in Sprague-Dawley rat primary cortical neurons at 50 uM […] measured after 24 hrs by MTT assay relative to clomethiazole
- Type: functional, Cerebral cortex neuron
readout.name: Activity (%)

* Cc1ncsc1C(CO)n1cc(-c2cccnc2)nn1 (centres undefined) | 107.3
* Cc1ncsc1C(c1ccccc1)n1cc(Cc2ccccc2)nn1 (centres undefined) | 88.3
* Cc1ncsc1C(O)c1ccc(F)cc1 (centres undefined) | 36.8
* Cc1ncsc1C(c1ccccc1)n1cc(-c2ccsc2)nn1 (centres undefined) | 62
* COC(c1ccccc1)c1scnc1C (centres undefined) | 110.2
* Cc1ncsc1CCn1ccnn1 | 51.5
* Cc1ncsc1C(O)Cc1ccccc1 (centres undefined) | 102
* Cc1ccc2c(c1)c1c(n2CCc2scnc2C)CCN(C)C1 | 15.4
* Cc1ncsc1C(c1ccccc1)n1ccnn1 (centres undefined) | 58.1
* Cc1ncsc1C(CO)c1ccc(F)cc1 (centres undefined) | 98.9
* Cc1ncsc1CCn1cc(-c2cccnc2)nn1 | 99.6
* Cc1ncsc1C(OCCOCCO)c1ccccc1 (centres undefined) | 114.1
* Cc1ncsc1CCO | 14.11
* Cc1ncsc1C(c1ccccc1)n1cc(-c2cncc(O)c2)nn1 (centres undefined) | 104

* * *

- experiment.summary: Drug uptake in C57BL/6 mouse brain at 4.5 umol/kg, ip after 20 mins
- Type: ADME, organism-based
- assay.conditions: read-out: Drug uptake
// concentration at 20 min lookup, one value per entry
readout.name: concentration at 20 min (µg/mL)

• Cc1ncsc1C(CO)n1cc(-c2cccnc2)nn1 (centres undefined) = 0.0564
• Cc1ncsc1C(CO)c1ccccc1 (centres undefined) = 0.0329
• Cc1ncsc1C(CO[N+](=O)[O-])n1cc(-c2cccnc2)nn1 (centres undefined) = 0.0021
• Cc1ncsc1C(CO[N+](=O)[O-])c1ccccc1 (centres undefined) = 0.0095

* * *

- experiment.summary: Neuroprotective activity against oxygen-glucose deprivation-induced toxicity in Sprague-Dawley rat primary cortical neurons at 50 uM […] measured after 24 hrs by MTT assay relative to clomethiazole
- Format: functional, Cerebral cortex neuron
// Activity lookup, one value per entry
readout.name: Activity (%)

- Cc1ncsc1C(c1ccccc1)n1cc(-c2ccccn2)nn1 (stereo not drawn): 50.9
- Cc1ncsc1C(CO)c1ccccc1 (stereo not drawn): 99.6
- Cc1ncsc1C(c1ccccc1)n1cc(-c2cccnc2)nn1 (stereo not drawn): 108
- Cc1ncsc1C(c1ccccc1)n1cc(-c2ccccc2)nn1 (stereo not drawn): 57.6
- Cc1ncsc1CCn1cc(-c2ccccc2)nn1: 53.9
- Cc1ncsc1C(CO)n1nncc1-c1cccnc1 (stereo not drawn): 92.9
- Cc1ncsc1C(c1ccccc1)n1cc(-c2cncn2C)nn1 (stereo not drawn): 93.9
- Cc1ncsc1C(c1ccc(F)cc1)n1cc(-c2cccnc2)nn1 (stereo not drawn): 87.2
- Cc1ncsc1C(O)c1ccc(Cl)cc1 (stereo not drawn): 25
- Cc1ncsc1C(O)c1ccccc1 (stereo not drawn): 94
- Cc1ncsc1C(c1ccccc1)n1cc(-c2ccncc2)nn1 (stereo not drawn): 90.2
- Cc1ncsc1C(O)Cc1ccc(F)cc1 (stereo not drawn): 101
- Cc1ncsc1C(CO)c1ccc(-c2cccnc2)cc1 (stereo not drawn): 25
